Tested on: BIN1 Exon 11 splicing
assay-method-text: Correction of BIN1 Exon 11 splicing defect in DM1-32F cells, Fab-ASO complexes (Table 9 ASOs; Table 13)
Assay type: cell-based, human
test-settings: 1000 nM ASO equivalent of Fab-ASO complex, ten days; ratio >1 = more wild-type splicing
endpoint-label: 32F Cells BIN1 Exon 11 inclusion vs. Vehicle
One number for each entry.

oG*oA*oC*oC*oA*dG*dG*dT*dA*dC*dA*dG*dG*dT*dA*oG*oU*oU*oC*oU [ASO8]: 1.60

Parameters: items (list). Returns: 32F Cells BIN1 Exon 11 inclusion vs. Vehicle for each item.
1. oG*oC*oG*oA*oA*dT*dA*dC*dA*dC*dC*dc*dA*dG*xdC*oG*oC*oC*oC*oA [ASO25]
2. oC*oC*oA*oG*oC*dG*dC*dC*dC*dA*dC*dC*dA*dG*dT*oC*oA*oC*oA*oC [ASO24]
3. oG*oU*oA*oC*oA*dG*dG*dT*dA*dG*dT*dT*dC*dT*dC*oA*oU*oC*oC*oU [ASO6]
4. oA*oG*oC*oG*oC*dC*dC*dA*dC*dC*dA*dG*dT*dC*oA*oC*oA*oC*oU*oC [ASO22]
5. oU*oU*oG*oU*oA*dG*dT*dG*dG*dA*xdC*dG*dA*dT*dC*oU*oU*oG*oC*oC [ASO27]

1: 2.41; 2: 3.00; 3: 1.38; 4: 1.95; 5: 2.01

Parameters: items (list). Returns: 32F Cells BIN1 Exon 11 inclusion vs. Vehicle for each item.
1. oG*oC*oG*oU*oC*dA*dC*dC*dT*xdC*dG*dG*dC*dC*dT*oC*oA*oG*oC*oC [ASO36]
2. oC*oG*oA*oA*oU*dG*dT*dC*xdC*dG*dA*dC*dA*dG*dT*oG*oU*oC*oU*oC [ASO32]
3. oG*oG*oC*oG*oA*dA*dT*dA*dC*dA*dC*dc*dC*dA*dG*oC*oG*oC*oC*oC [ASO26]
4. oU*oG*oA*oC*oA*dA*dT*dC*dT*dC*xdC*dG*dC*dC*dA*oG*oG*oU*oA*oG [ASO11]
5. oU*oG*oG*A*A*dC*dA*xdC*dG*dG*dA*xdC*dG*dG*dC*oC*oC*oG*oG*oC [ASO42]
6. oC*oA*oU*oG*oG*dC*dA*dT*dA*dC*dA*dC*dC*dT*dG*oG*oC*oC*oC*oG [ASO1]

1: 2.75; 2: 2.11; 3: 1.63; 4: 2.00; 5: 2.53; 6: 2.11

Parameters: items (list). Returns: 32F Cells BIN1 Exon 11 inclusion vs. Vehicle for each item.
1. oU*oG*oG*oC*oC*dA*dC*dA*dG*xdC*dG*dG*dT*dC*dC*oA*oG*oC*oA*oG [ASO21]
2. oC*oC*oA*oU*oU*dC*dA*dC*dC*dA*dA*dC*dA*xdC*dG*oU*oC*oC*oC*oU [ASO4]

1: 1.77; 2: 1.63

====

Test system: BIN1 Exon 11 splicing
assay-method-text: Correction of BIN1 Exon 11 splicing defect in DM1-32F cells, Fab-ASO complexes (Table 9 ASOs; Table 13)
Format: cell-based, human
test-settings: 1000 nM ASO equivalent of Fab-ASO complex, ten days; ratio >1 = more wild-type splicing
I'd be grateful if you could share measured 32F Cells BIN1 Exon 11 inclusion vs. Vehicle for these entries.
One number for each entry.

oA*oC*oC*oA*oG*dG*dT*dA*dC*dA*dG*dG*dT*dA*dG*oU*oU*oC*oU*oC [ASO7]: 1.55
oU*oU*oG*oC*oC*dC*dA*dT*dC*dC*dA*xdC*dG*dT*dC*oA*oG*oG*oG*oC [ASO40]: 1.42
oG*oG*oA*oC*oG*dG*dC*dC*xdC*dG*dG*dC*dT*dT*dG*oC*oU*oG*oC*oC [ASO41]: 1.52
oU*oG*oG*oC*oC*dA*dT*dG*dA*dC*dA*dA*dT*dC*dT*oC*oC*oG*oC*oC [ASO17]: 1.89
oG*oG*oG*oC*oC*xdC*dG*dG*dA*dT*dC*dA*dC*dA*dG*oG*oA*oC*oU*oG [ASO39]: 2.97
oG*oC*oC*oA*oU*dG*dA*dC*dA*dA*dT*dC*dT*dC*xdC*oG*oC*oC*oA*oG [ASO15]: 1.99
oU*oG*oC*oA*oC*dG*dT*dG*dT*dG*dG*dC*dT*dC*dA*oA*oG*oC*oA*oG [ASO34]: 2.25

Next, consider the following substance.
# 32F Cells BIN1 Exon 11 inclusion vs. Vehicle lookup, item oC*oC*oU*oU*oG*dT*dA*dG*dT*dG*dG*dA*xdC*dG*dA*oU*oC*oU*oU*oG [ASO29] 1.44

The measurements presented in this section are drawn from patent US20240325558A1.
